Give measured Plant response rating, Wheat for each item. Keep answers brief.
test system: winter wheat (Triticum aestivum); experiment: Test C pre-/postemergence: winter wheat; format: in vivo; conditions: Preemergence, 62 g ai/ha; scale of 0 to 100, 0 is no effect, 100 is complete control
# respond with the number and nothing more

Requested read-out: Plant response rating, Wheat. Entry: CCOc1nn(-c2ccc(F)cc2)nc1Cc1ccnc(C(F)F)c1 [Compound 195]
5

Try the molecule Cc1nn(-c2ccc(F)c(C(F)(F)F)c2)nc1Oc1ccnc(C(F)(F)F)c1 [Compound 147]
5

Try the molecule Cc1nn(-c2ccc(F)cc2)nc1Oc1ccnc(C(F)(F)F)c1 [Compound 129]
20

Try the molecule CCOc1nn(-c2ccc(Br)cc2)nc1Cc1ccnc(C(F)(F)F)c1 [Compound 189]
15
